# SYSTEM TESTED: PKA (Homo sapiens)
PROPERTY MEASURED: IC50
Output should be the measured figure followed by the unit it is expressed in.

[in] Any idea what IC50 came out for "c1ccc(-c2nc(Nc3ccncc3)c3ccccc3n2)cc1" on PKA (Homo sapiens)?
[out] 310 µM

----------
# SYSTEM TESTED: PKC
# ASSAY METHOD TEXT: Kinase specificity: PKC
# DETAILS: tested at 50 μM; approximate IC50(app)=A×i/(1−A)
PROPERTY MEASURED: IC50

INSERT INTO results (smiles_text, system_tested, result) VALUES
  ('Fc1ccccc1-c1nc(Nc2ccncc2)c2ccccc2n1', 'PKC', '> 100 µM');

Here's the next entry for you.
[in] Any idea what IC50 came out for "c1ccc(-c2nc(Nc3ccncc3)c3ccccc3n2)cc1" on PKC?
[out] > 500 µM

----------
# ASSAY METHOD TEXT: Solubility in 5% DMSO/95% water
# Type: physicochemical
# DETAILS: aqueous with cosolvent or surfactant or cyclodextrin, read-out: soluble at
# Procedure: Compounds 5 and 7 were tested for their specificity for p38 by assessing their ability to inhibit other kinases. These compounds were tested at 50 μM and were soluble at 250 μM in 5% DMSO/95% water.
A collection of compounds and their measured solubility

INSERT INTO measurements (smiles_text, result) VALUES
  ('Fc1ccccc1-c1nc(Nc2ccncc2)c2ccccc2n1', '≥ 250 µM');

Here's the next entry for you.
[in] Bench note: what solubility did "c1ccc(-c2nc(Nc3ccncc3)c3ccccc3n2)cc1" show?
[out] ≥ 250 µM
